Where do these numbers come from? They come from ChEMBL document CHEMBL1961873.

tgt: 5'-AMP-activated protein kinase catalytic subunit alpha-2 (Homo sapiens)
condition-set: at 1 µM
Description: GSK_PKIS: AMPKA2 (A2B1G1) mean inhibition at 1 uM [Nanosyn]
Measured inhibition, listed per entry for reference.
Report as a plain number; the unit % is understood.

Cc1ccc(NC(=O)c2ccnc(N3CCCC3)c2)cc1-c1ccc(C(=O)NCC2CC2)cc1 = 8.93
Cn1cc(C=C2C(=O)Nc3cccnc32)c2ccccc21 = 8.64
COc1cc(C)c(NC(=O)CN(C)C)cc1Nc1nc(Nc2cccc(F)c2C(N)=O)c2cc[nH]c2n1 = 4.27
CN1CCC(C(=O)Nc2n[nH]c3nnc(-c4ccccc4)cc23)CC1 = 5.01

Below: the item to evaluate.
What is its inhibition for 5'-AMP-activated protein kinase catalytic subunit alpha-2 (Homo sapiens)? Entry: COc1ccc(-c2coc3ncnc(N)c23)cc1
5.94
